Taken from patent US20030078251A1.

Measured melting point, listed per entry.

**Query** Could you tell me which melting point is on file for COc1cccc([C@H]2O[C@H](CC(=O)Nc3cccc(C(=O)O)c3C)C(=O)N(CC(C)(C)COC(C)=O)c3ccc(Cl)cc32)c1OC ?
**Result** 139 to 142 °C

---
**Query** I'd like to know its melting point. The molecule in question is COc1cccc([C@H]2O[C@H](CC(=O)Nc3ccc4oc(C(=O)O)c(OC)c4c3)C(=O)N(CC(C)(C)CO)c3ccc(Cl)cc32)c1OC
**Result** 175.4 to 176.3 °C

====

quantity-kind: melting point

**Query** What does the data say about its melting point? Entry: CCc1cc(NC(=O)C[C@H]2O[C@H](c3cccc(OC)c3OC)c3cc(Cl)ccc3N(CC(C)(C)CO)C2=O)cc2cc(C(=O)O)oc12 [Example 162]
**Result** 188 to 189 °C

**Query** State the recorded melting point for this entry: COc1ccc(CC(=O)O)cc1NC(=O)C[C@H]1O[C@H](c2cccc(OC)c2OC)c2cc(Cl)ccc2N(CC(C)(C)CO)C1=O [Example 109]
**Result** 215 to 216 °C

**Query** # melting point lookup, item COc1cccc([C@H]2O[C@H](CC(=O)N[C@H](C)C(=O)O)C(=O)N(CC(C)(C)C)c3ccc(Cl)cc32)c1OC [Example 18]
**Result** 184 to 186 °C

Moving on to the next compound.
**Query** Given the entry COc1cccc([C@H]2O[C@H](CC(=O)Nc3ccc4oc(C(=O)O)c(OCC(=O)O)c4c3)C(=O)N(CC(C)(C)CO)c3ccc(Cl)cc32)c1OC [Example 155] , report its measured melting point.
**Result** 193 to 195.5 °C

====

quantity-kind: melting point

A selection of reference data follows.
**Query** Param item = COc1cccc([C@H]2O[C@H](CC(=O)NCCCOc3ccc(CC(=O)O)cc3)C(=O)N(CC(C)(C)COC(C)=O)c3ccc(Cl)cc32)c1OC [Example 97] ; retrieve measured melting point.
**Result** 163 to 164 °C

**Query** Given the entry COc1cccc([C@@H]2O[C@@H](CC(=O)Nc3cccc(CCC(=O)O)c3)C(=O)N(CC(C)(C)CO)c3ccc(Cl)cc32)c1OC [Example 120] , report its measured melting point.
**Result** 137 to 139 °C

**Query** // returns reported melting point for input COc1cccc([C@H]2O[C@H](CC(=O)Nc3ccc4[nH]c(SCC(=O)O)nc4c3)C(=O)N(CC(C)(C)CO)c3ccc(Cl)cc32)c1OC [Example 148]
**Result** 187.9 to 188.9 °C

Next:
**Query** What value of melting point has been reported for the following compound? COc1cccc([C@H]2O[C@H](CC(=O)NCc3ccc(C(=O)O)o3)C(=O)N(CC(C)(C)CO)c3ccc(Cl)cc32)c1OC [Example 29]
**Result** 128 to 131 °C

**Query** // lookup melting point for COc1cccc([C@H]2O[C@H](CC(=O)Nc3ncc(CCC(=O)O)s3)C(=O)N(CC(C)(C)CO)c3ccc(Cl)cc32)c1OC [Example 144]
**Result** 203 to 205 °C

**Query** Could you share which melting point value was measured for COc1cccc([C@H]2O[C@H](CC(=O)NCCCOc3cccc(C(=O)O)c3)C(=O)N(CC(C)(C)CO)c3ccc(Cl)cc32)c1OC [Example 100] ?
**Result** 132 to 134 °C

**Query** What does the record list as melting point for COc1cccc([C@@H]2O[C@@H](CC(=O)Nc3cc(CCC(=O)O)ccc3F)C(=O)N(CC(C)(C)CO)c3ccc(Cl)cc32)c1OC [Example 121] ?
**Result** 151 to 153 °C

**Query** Consider the compound shown here: COc1cccc([C@H]2O[C@H](CC(=O)NCCCOc3ccc(C(=O)O)cc3)C(=O)N(CC(C)(C)CO)c3ccc(Cl)cc32)c1OC [Example 98] What is its recorded melting point?
**Result** 138 to 139 °C

**Query** So what does the record say about melting point for COc1cccc([C@H]2O[C@H](CC(=O)Nc3ccc(CC(=O)O)cc3)C(=O)N(CC(C)(C)CO)c3ccc(Cl)cc32)c1OC [Example 31] ?
**Result** 142 to 144 °C

**Query** Need melting point, item COc1cccc([C@H]2O[C@H](CC(=O)Nc3cccc(CCC(=O)O)c3)C(=O)N(CC(C)(C)CO)c3ccc(Cl)cc32)c1OC [Example 35]
**Result** 141 to 144 °C
